testSystem: T1, extracellular domain of A. thaliana TDR (residues 30-642) (Arabidopsis thaliana, UniProt Q9FII5 30-642, N-glycosylated at N111, N356, N378, N471 and N525 (one GlcNAc visible on each in the structures))
T1 construct: TDR/PXY (TDIF RECEPTOR / PHLOEM INTERCALATED WITH XYLEM) of A. thaliana, extracellular domain, residues 30-642; the structure models hold residues 40-625; also called ecdTDR; TDR-ECD; source: High Five insect cells (baculovirus), secreted, purified (Ni-NTA, size-exclusion chromatography)
T1 sequence (looked up): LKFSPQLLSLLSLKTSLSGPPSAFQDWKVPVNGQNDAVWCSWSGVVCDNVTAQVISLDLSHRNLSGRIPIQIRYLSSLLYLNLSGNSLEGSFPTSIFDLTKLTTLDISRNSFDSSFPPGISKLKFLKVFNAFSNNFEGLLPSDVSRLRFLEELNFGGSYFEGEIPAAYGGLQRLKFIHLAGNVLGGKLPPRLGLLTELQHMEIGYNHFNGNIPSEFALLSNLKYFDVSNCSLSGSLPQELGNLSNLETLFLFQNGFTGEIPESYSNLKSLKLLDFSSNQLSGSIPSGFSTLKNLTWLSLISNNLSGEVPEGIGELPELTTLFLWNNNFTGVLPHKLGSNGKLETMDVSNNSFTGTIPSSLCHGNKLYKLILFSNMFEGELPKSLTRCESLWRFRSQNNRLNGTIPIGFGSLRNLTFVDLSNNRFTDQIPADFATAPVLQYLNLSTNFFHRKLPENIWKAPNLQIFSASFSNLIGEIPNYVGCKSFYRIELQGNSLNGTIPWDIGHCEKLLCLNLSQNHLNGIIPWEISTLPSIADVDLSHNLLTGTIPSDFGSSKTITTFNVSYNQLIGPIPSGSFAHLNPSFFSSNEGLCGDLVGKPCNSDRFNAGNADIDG
assayExplanation: ITC; 0.5–1 mM peptide titrated into 10–40 μM ecdTDR; 25°C; 10 mM sodium citrate, 100 mM NaCl, pH 5.5; fitted to one set of binding sites; MicroCal Auto-iTC200
conditionParameters: both partners purified
Square brackets hold non-standard residues; d marks the D form. Ends that are not written are not given here. Hyp = O=C(O)[C@@H]1C[C@@H](O)CN1
valueType: Kd

Form field: reported Kd of HEV[Hyp]SG[Hyp]APASA (TDIF (CLE41/CLE44 peptide) of A. thaliana; numbers count on: the 12-residue peptide) [TDIF-N8A/I10A/N12A peptide]
~11 µM

Reference source for all entries: paper PMC5383425
